The origin of these recorded values is the supplement of paper PMC10307832.

System: NCI-H3122
Test description: relative viability (nuclei count vs DMSO), 5 days (fraction); higher = more cells survive
Cond: first compound 0.1 µM
Response field label takes Criterion met when relative viability is strictly below 0.5 and Criterion not met in all other cases.

Take the compound O=c1cc(N2CCOCC2)oc2c(-c3cccc4c3sc3ccccc34)cccc12 + CC(=O)c1c(C)c2cnc(Nc3ccc(N4CCNCC4)cn3)nc2n(C2CCCC2)c1=O [Palbociclib] (partner 0.5 µM) and say whether its relative viability is less than 0.5.
Criterion met

Take the compound CCN(CC)CCCCNc1ncc2cc(-c3cc(OC)cc(OC)c3)c(NC(=O)NC(C)(C)C)nc2n1 + Cc1cc(Nc2cc(N3CCN(C)CC3)nc(Sc3ccc(NC(=O)C4CC4)cc3)n2)n[nH]1 [Tozasertib] (partner 0.1 µM) and say whether its relative viability is less than 0.5.
Criterion met

Take the compound CCN(CC)CCCCNc1ncc2cc(-c3cc(OC)cc(OC)c3)c(NC(=O)NC(C)(C)C)nc2n1 + C[C@@H](Oc1cc(-c2cnn(C3CCNCC3)c2)cnc1N)c1c(Cl)ccc(F)c1Cl [Crizotinib] (partner 1 µM) and say whether its relative viability is less than 0.5.
Criterion met

Take the compound O=c1cc(N2CCOCC2)oc2c(-c3cccc4c3sc3ccccc34)cccc12 + NC(=O)Nc1cc(-c2cccc(F)c2)sc1C(=O)N[C@H]1CCCNC1 [AZD7762] (partner 0.2 µM) and say whether its relative viability is less than 0.5.
Criterion not met

Take the compound CCN(CC)CCCCNc1ncc2cc(-c3cc(OC)cc(OC)c3)c(NC(=O)NC(C)(C)C)nc2n1 + COc1cc2c(Oc3ccc(NC(=O)C4(C(=O)Nc5ccc(F)cc5)CC4)cc3F)ccnc2cc1OCCCN1CCOCC1 [Foretinib] (partner 0.25 µM) and say whether its relative viability is less than 0.5.
Criterion not met

---

Tested on: NCI-H1650
Test description: relative viability (nuclei count vs DMSO), 5 days (fraction); higher = more cells survive
Cond: first compound 0.03162 µM
Assign relative viability to each entry below.
// no unit, no text: just the number

Name the recorded relative viability of the compound listed here: CCN(CC)CCCCNc1ncc2cc(-c3cc(OC)cc(OC)c3)c(NC(=O)NC(C)(C)C)nc2n1 + Cc1cc(Nc2cc(N3CCN(C)CC3)nc(Sc3ccc(NC(=O)C4CC4)cc3)n2)n[nH]1 [Tozasertib] (partner 0.1 µM)
0.305

Name the recorded relative viability of the compound listed here: O=c1cc(N2CCOCC2)oc2c(-c3cccc4c3sc3ccccc34)cccc12 + Nc1nc2[nH]cc(CCc3ccc(C(=O)N[C@@H](CCC(=O)O)C(=O)O)cc3)c2c(=O)[nH]1 [Pemetrexed] (partner 0.2 µM)
0.374

Name the recorded relative viability of the compound listed here: O=c1cc(N2CCOCC2)oc2c(-c3cccc4c3sc3ccccc34)cccc12 + N=C(N)NC(=N)NCCc1ccccc1 [Phenformin] (partner 250 µM)
0.48

Name the recorded relative viability of the compound listed here: CCN(CC)CCCCNc1ncc2cc(-c3cc(OC)cc(OC)c3)c(NC(=O)NC(C)(C)C)nc2n1 + N=C(N)NC(=N)NCCc1ccccc1 [Phenformin] (partner 250 µM)
0.416

Name the recorded relative viability of the compound listed here: CCN(CC)CCCCNc1ncc2cc(-c3cc(OC)cc(OC)c3)c(NC(=O)NC(C)(C)C)nc2n1 + CCNC(=O)c1noc(-c2cc(C(C)C)c(O)cc2O)c1-c1ccc(CN2CCOCC2)cc1 [Luminespib] (partner 0.01 µM)
0.214

Name the recorded relative viability of the compound listed here: CCN(CC)CCCCNc1ncc2cc(-c3cc(OC)cc(OC)c3)c(NC(=O)NC(C)(C)C)nc2n1 + O=C(c1cc(Cc2n[nH]c(=O)c3ccccc23)ccc1F)N1CCN(C(=O)C2CC2)CC1 [Olaparib] (partner 8 µM)
0.819

Name the recorded relative viability of the compound listed here: CCN(CC)CCCCNc1ncc2cc(-c3cc(OC)cc(OC)c3)c(NC(=O)NC(C)(C)C)nc2n1 + CC(=O)Nc1cccc(-n2c(=O)n(C3CC3)c(=O)c3c(Nc4ccc(I)cc4F)n(C)c(=O)c(C)c32)c1 [Trametinib] (partner 0.02 µM)
0.564

---

Assign relative viability to each entry below.
System: NCI-H3122
Test description: relative viability (nuclei count vs DMSO), 5 days (fraction); higher = more cells survive
Cond: first compound 0.1 µM
// no unit, no text: just the number

Name the recorded relative viability of the compound listed here: O=c1cc(N2CCOCC2)oc2c(-c3cccc4c3sc3ccccc34)cccc12 + C[C@@H](Oc1cc(-c2cnn(C3CCNCC3)c2)cnc1N)c1c(Cl)ccc(F)c1Cl [Crizotinib] (partner 1 µM)
0.274

Name the recorded relative viability of the compound listed here: O=c1cc(N2CCOCC2)oc2c(-c3cccc4c3sc3ccccc34)cccc12 + COc1cccc2cc(-c3nc([C@H]4CC[C@H](C(=O)O)CC4)n4ncnc(N)c34)[nH]c12 [OSI-027] (partner 0.5 µM)
0.907

Name the recorded relative viability of the compound listed here: CCN(CC)CCCCNc1ncc2cc(-c3cc(OC)cc(OC)c3)c(NC(=O)NC(C)(C)C)nc2n1 + CC(C)C[C@H](NC(=O)[C@H](Cc1ccccc1)NC(=O)c1cnccn1)B(O)O [Bortezomib] (partner 0.002 µM)
1.1

Name the recorded relative viability of the compound listed here: CCN(CC)CCCCNc1ncc2cc(-c3cc(OC)cc(OC)c3)c(NC(=O)NC(C)(C)C)nc2n1 + CS(=O)(=O)N1CCN(Cc2cc3nc(-c4cccc5[nH]ncc45)nc(N4CCOCC4)c3s2)CC1 [Pictilisib] (partner 1 µM)
0.674

---

Assign relative viability to each entry below.
Tested on: NCI-H2085
Test description: relative viability (nuclei count vs DMSO), 5 days (fraction); higher = more cells survive
Cond: first compound 20 µM

Provide relative viability, tested on NCI-H2085, for COCC1(CO)C(=O)C2CCN1CC2 (stereo not given) [PRIMA-1MET] + CC(C)C[C@H](NC(=O)[C@H](Cc1ccccc1)NC(=O)c1cnccn1)B(O)O [Bortezomib] (partner 0.002 µM) .
0.392

Provide relative viability, tested on NCI-H2085, for COCC1(CO)C(=O)C2CCN1CC2 (stereo not given) [PRIMA-1MET] + Cc1nc(NC(=O)N2CCC[C@H]2C(N)=O)sc1-c1ccnc(C(C)(C)C(F)(F)F)c1 [Alpelisib] (partner 2 µM) .
0.35

Provide relative viability, tested on NCI-H2085, for COCC1(CO)C(=O)C2CCN1CC2 (stereo not given) [PRIMA-1MET] + O=C(c1cc(Cc2n[nH]c(=O)c3ccccc23)ccc1F)N1CCN(C(=O)C2CC2)CC1 [Olaparib] (partner 8 µM) .
0.191

Provide relative viability, tested on NCI-H2085, for COCC1(CO)C(=O)C2CCN1CC2 (stereo not given) [PRIMA-1MET] + O=C(CCCCCCC(=O)Nc1ccccc1)NO [Vorinostat] (partner 1 µM) .
0.154

Provide relative viability, tested on NCI-H2085, for COCC1(CO)C(=O)C2CCN1CC2 (stereo not given) [PRIMA-1MET] + N=C(N)NC(=N)NCCc1ccccc1 [Phenformin] (partner 250 µM) .
0.272

---

Tested on: LCLC-97TM1
Test description: relative viability (nuclei count vs DMSO), 5 days (fraction); higher = more cells survive
Cond: first compound 20 µM
Response field label takes label 1 when relative viability is strictly below 0.2 and label 0 in all other cases.

Take the molecule COCC1(CO)C(=O)C2CCN1CC2 (stereo not given) [PRIMA-1MET] + CCNC(=O)c1noc(-c2cc(C(C)C)c(O)cc2O)c1-c1ccc(CN2CCOCC2)cc1 [Luminespib] (partner 0.01 µM) and say whether its relative viability is less than 0.2.
label 0

Take the molecule COCC1(CO)C(=O)C2CCN1CC2 (stereo not given) [PRIMA-1MET] + CC(C)C[C@H](NC(=O)[C@H](Cc1ccccc1)NC(=O)c1cnccn1)B(O)O [Bortezomib] (partner 0.002 µM) and say whether its relative viability is less than 0.2.
label 1

Take the molecule COCC1(CO)C(=O)C2CCN1CC2 (stereo not given) [PRIMA-1MET] + N=C(N)NC(=N)NCCc1ccccc1 [Phenformin] (partner 250 µM) and say whether its relative viability is less than 0.2.
label 0

Take the molecule COCC1(CO)C(=O)C2CCN1CC2 (stereo not given) [PRIMA-1MET] + CS(=O)(=O)N1CCN(Cc2cc3nc(-c4cccc5[nH]ncc45)nc(N4CCOCC4)c3s2)CC1 [Pictilisib] (partner 1 µM) and say whether its relative viability is less than 0.2.
label 1

---

Assign relative viability to each entry below.
System: NCI-H1734
Test description: relative viability (nuclei count vs DMSO), 5 days (fraction); higher = more cells survive
Cond: first compound 0.01 µM
// no unit, no text: just the number

Provide relative viability, tested on NCI-H1734, for CCN(CC)CCCCNc1ncc2cc(-c3cc(OC)cc(OC)c3)c(NC(=O)NC(C)(C)C)nc2n1 + CC(C)C[C@H](NC(=O)[C@H](Cc1ccccc1)NC(=O)c1cnccn1)B(O)O [Bortezomib] (partner 0.002 µM) .
0.941

Provide relative viability, tested on NCI-H1734, for O=c1cc(N2CCOCC2)oc2c(-c3cccc4c3sc3ccccc34)cccc12 + Cc1nc(NC(=O)N2CCC[C@H]2C(N)=O)sc1-c1ccnc(C(C)(C)C(F)(F)F)c1 [Alpelisib] (partner 2 µM) .
0.7

Provide relative viability, tested on NCI-H1734, for CCN(CC)CCCCNc1ncc2cc(-c3cc(OC)cc(OC)c3)c(NC(=O)NC(C)(C)C)nc2n1 + Nc1nc2[nH]cc(CCc3ccc(C(=O)N[C@@H](CCC(=O)O)C(=O)O)cc3)c2c(=O)[nH]1 [Pemetrexed] (partner 0.2 µM) .
0.405
